Data origin: patent US20240368243A1

Molecular target: … (SEQ ID NO: 1)-HLA-A*02 complex (soluble, biotinylated) (human)
Assay: SPR (BIAcore) or BLI (Octet) per Example 3, biotinylated pHLA immobilised, 25 C
Consider the following binders and their measured t1/2 readings.
Numeric answer only, unit h assumed.

Completed entries (count: 2):
ImmTAC molecule comprising a79 (SEQ ID NO: 7) and b76 (SEQ ID NO: 24) (TCR, part only; not given: anti-CD3 scFv, linker, TCR constants, part only) TCR alpha, part: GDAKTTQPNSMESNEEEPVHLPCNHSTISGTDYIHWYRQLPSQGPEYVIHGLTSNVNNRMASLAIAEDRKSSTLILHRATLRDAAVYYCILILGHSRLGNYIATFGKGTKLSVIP TCR beta, part: DGGITQSPKYLFRKEGQNVTLSCEQNLNHDAMYWYRQDPGQGLRLIYYSQIMGDEQKGDIAEGYSVSREKKESFPLTVTSAQKNPTAFYLCASSWWTGGSSPIRFGPGTRLTVT ... 58.3
ImmTAC molecule comprising a79 (SEQ ID NO: 7) and b77 (SEQ ID NO: 18) (TCR, part only; not given: anti-CD3 scFv, linker, TCR constants, part only) TCR alpha, part: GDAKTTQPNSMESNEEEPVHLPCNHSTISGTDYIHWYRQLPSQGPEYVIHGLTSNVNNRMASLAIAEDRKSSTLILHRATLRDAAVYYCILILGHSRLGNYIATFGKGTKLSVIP TCR beta, part: DGGITQSPKYLFRKEGQNVTLSCEQNLNHDAMYWYRQDPGQGLRLIYYSQIMGDEQKGDIAEGYSVSREKKESFPLTVTSAQKNPTAFYLCASSWWTGGAAPIRFGPGTRLTVT ... 8.6

Then there is this binder:
Value of measured t1/2 for the entry ImmTAC molecule comprising a79 (SEQ ID NO: 7) and b63 (SEQ ID NO: 22) (TCR, part only; not given: anti-CD3 scFv, linker, TCR constants, part only) TCR alpha, part: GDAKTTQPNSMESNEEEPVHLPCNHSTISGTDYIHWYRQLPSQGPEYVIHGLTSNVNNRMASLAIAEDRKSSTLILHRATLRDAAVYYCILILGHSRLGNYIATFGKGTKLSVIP TCR beta, part: DGGITQSPKYLFRKEGQNVTLSCEQNLNHDAMYWYRQDPGQGLRLIYYSQIVGDEQKGDIAEGYSVSREKKESFPLTVTSAQKNPTAFYLCASSWWTGGSAPIRFGPGTRLTVT : 10.8
